Source listed as the supplement of paper PMC10567573.

B1: OAS1 (parent)
chain: YIGTHEYPHFSHRPSTLQAASTPQ

Variants of: B1
test: protein stability index of a GFP-peptide fusion (GPS, HEK-293T) (PSI 1-6); higher = more stable;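 further: lentivirally expressed fusions sorted by FACS into six bins by GFP to DsRed ratio, PSI derived from sequencing read proportions per bin multiplied by bin number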
testConditions: c terminus: a fixed tail appended
experimentalEndpoint: protein stability index
Numbers only.

Use the examples below as a reference point.
Short answer for "T16S" : protein stability index was 2.34

Field protein stability index (entry "T16G" ) reads 1.62

Data point: "H5V" ; protein stability index = 2.23

Each of the following entries comes with a recorded value; kindly state protein stability index for each.
1. L17K
2. P14C
3. H5T
4. R13A
5. P8R
6. T4N

Result:
1. 1.79
2. 1.78
3. 2.3
4. 2.58
5. 1.63
6. 2.2

State the recorded protein stability index for every item in the following list.
1. S11K
2. A19W
3. T22D
4. R13E
5. T22S

Result:
1. 1.92
2. 1.28
3. 2.64
4. 2.19
5. 1.38

For every record below, what is its protein stability index?
1. G3Q
2. F10W
3. H9F
4. I2C
5. S11F
6. P8N
7. Y1D
8. H12P

Result:
[2.32, 1.89, 2.2, 1.87, 3.55, 2.05, 4.09, 2.15]
